Reference source: paper PMC4503722

Item-by-item account of Basal_Viability ATP RKO IC50/EC50
System: RKO
METHOD: cells
Type: cell-based
Write down the numeric answer in nM and omit the unit.

Name the reported Basal_Viability ATP RKO IC50/EC50 value associated with the compound CC(C)=CCOc1ccc(/C=C/C(=O)c2ccc(OCC=C(C)C)cc2OCC(=O)O)cc1 5533.5

Name the reported Basal_Viability ATP RKO IC50/EC50 value associated with the compound CO[C@@]12[C@H](COC(N)=O)C3=C(C(=O)C(C)=C(N)C3=O)N1C[C@@H]1N[C@@H]12 995.3

Name the reported Basal_Viability ATP RKO IC50/EC50 value associated with the compound O=C(Nc1ccc(Oc2ccc(Cl)cc2)c(Cl)c1)c1cc(I)cc(I)c1O 30.3
